The measurements presented in this section are drawn from ChEMBL document CHEMBL4257581.

Assignment: determine reported bioavailability for the given compounds.
# assay_remarks: Oral bioavailability in mouse at 10 mg/kg
# Format: ADME, organism-based
# experimental_context: in vivo
Answers are plain numbers, in %.

These recorded examples may help you get a feel for the data.
What bioavailability value was documented for this compound, `CN(c1ccc(-c2ccc(C#N)cc2O)nn1)C1CC(C)(C)NC(C)(C)C1` ?
37

What bioavailability value was documented for this compound, `CN(c1ccc(-c2cc3ccccc3s2)nn1)C1CC(C)(C)NC(C)(C)C1` ?
100

API: the following record is the query input.
What bioavailability value was documented for this compound, `CN(c1ccc(-c2cc3ccccc3cc2O)nn1)C1CC(C)(C)NC(C)(C)C1` ?
100
